Target: T1, full-length human GIPR with an N-terminal FLAG tag (human, UniProt P48546 22-466)
T1 sequence (looked up): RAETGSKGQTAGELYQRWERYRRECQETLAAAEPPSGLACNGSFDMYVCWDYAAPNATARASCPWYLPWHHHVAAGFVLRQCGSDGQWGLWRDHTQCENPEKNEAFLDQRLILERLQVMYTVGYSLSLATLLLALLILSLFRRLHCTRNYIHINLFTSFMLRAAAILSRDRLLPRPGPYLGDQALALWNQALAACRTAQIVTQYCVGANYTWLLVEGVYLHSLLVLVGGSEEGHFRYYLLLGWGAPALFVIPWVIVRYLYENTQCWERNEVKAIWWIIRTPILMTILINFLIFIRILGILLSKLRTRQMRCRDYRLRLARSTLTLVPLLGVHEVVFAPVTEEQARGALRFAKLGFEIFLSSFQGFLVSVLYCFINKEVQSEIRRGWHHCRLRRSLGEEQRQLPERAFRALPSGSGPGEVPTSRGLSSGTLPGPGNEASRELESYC
Test: cell-based or functional assay
Starred links: 1 amine or outer side, 2 acyl side, 3 side chain; linkers in the order of their positions; H or OH if unused. Non-standard residues stand in square brackets, D forms with d. Groups on a side chain read outwards from the residue. No end group written: not given here. *: point of attachment. C16 diacid = O=C(O)CCCCCCCCCCCCCCC(=O)*; γGlu = O=C(O)[C@H](CCC(=O)[*:2])N[*:1]; NMeY = CN[C@@H](Cc1ccc(O)cc1)C(=O)O; AEEA = NCCOCCOCC(=O)O; Aib = CC(C)(N)C(=O)O
Answer each item with its documented Human GIPR cAMP, HEK293T EC50.
Numbers only, in pM.

INSERT INTO assay_data (binder, units_of_measure, experimental_result) VALUES
  ('[NMeY][Aib]EGTFISDYSIALDRIK([AEEA-AEEA-γGlu-C16 diacid])Q[Aib]NFVNWLLAQK [Compound 8]', 'pM', 0.1);

Provide each entry's Human GIPR cAMP, HEK293T EC50 from the list below.
1. Y[Aib]EGTFISDYSI[Aib]KDR[Aib]AQ[Aib]NFVNWLLAQR-NH2 (not fully specified (residues 1, 14)) [Compound 59]
2. [NMeY][Aib]EGTFISDYSIALDRKHQ[Aib]NFVNWLLAQRPSSGAPPPS-NH2 (not fully specified (residue 17)) [Compound 63]

Response given:
0.4
0.2

Origin of measurements: patent US20220227830A1
